target desc: HDAC7 (Homo sapiens)
Sequence (Q8WUI4 1-952): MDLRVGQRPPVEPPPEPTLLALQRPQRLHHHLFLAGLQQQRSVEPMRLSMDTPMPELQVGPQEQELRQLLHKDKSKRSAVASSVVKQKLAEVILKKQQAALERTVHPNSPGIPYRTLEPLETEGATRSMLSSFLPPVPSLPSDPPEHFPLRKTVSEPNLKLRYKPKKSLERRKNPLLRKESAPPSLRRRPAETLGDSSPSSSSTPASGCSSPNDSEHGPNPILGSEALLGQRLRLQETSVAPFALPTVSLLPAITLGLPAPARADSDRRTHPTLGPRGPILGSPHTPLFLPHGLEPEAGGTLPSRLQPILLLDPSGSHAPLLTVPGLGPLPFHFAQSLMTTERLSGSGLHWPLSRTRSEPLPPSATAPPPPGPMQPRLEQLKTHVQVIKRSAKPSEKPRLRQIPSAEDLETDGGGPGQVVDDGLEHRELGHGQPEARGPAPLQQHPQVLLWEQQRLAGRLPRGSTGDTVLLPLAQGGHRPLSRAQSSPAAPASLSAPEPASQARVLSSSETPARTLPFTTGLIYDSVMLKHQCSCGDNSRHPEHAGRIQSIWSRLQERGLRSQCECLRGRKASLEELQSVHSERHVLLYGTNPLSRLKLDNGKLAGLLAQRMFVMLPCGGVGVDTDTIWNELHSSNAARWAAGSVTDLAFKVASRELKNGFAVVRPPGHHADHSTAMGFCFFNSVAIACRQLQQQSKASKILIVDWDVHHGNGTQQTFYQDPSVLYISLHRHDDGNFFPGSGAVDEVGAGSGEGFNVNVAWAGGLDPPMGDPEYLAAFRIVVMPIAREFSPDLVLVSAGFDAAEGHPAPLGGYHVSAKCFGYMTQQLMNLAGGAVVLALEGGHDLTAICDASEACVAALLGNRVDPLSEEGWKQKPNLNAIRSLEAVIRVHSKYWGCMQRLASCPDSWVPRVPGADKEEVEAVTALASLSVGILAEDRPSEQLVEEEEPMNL
pIC50: −log10 of the molar value.
outcome measure: pIC50

Form field pIC50, entry COc1ccc(CN2[C@@H](C(=O)NCCCCCCC(=O)NO)Cc3c([nH]c4ccccc34)[C@@H]2C2CC2)cc1 [Compound 13d] : < 4.30
